The reported numbers originate from patent US20140140952A1.

System: HCV genotype 1b replicon
Test: HCV replicon assay (Zluc luciferase reporter)
Format: cell-based
Conditions: Hepatitis C virus, Zluc cells, 72 hours
value type: EC50

CC(C)OC(=O)[C@@H](C)N[P@](=O)(OCC1O[C@@H](n2ccc(=O)[nH]c2=O)[C@](C)(F)[C@@H]1O)Oc1ccccc1 (single isomer, unassigned)
> 10 µM

Problem: Identify the measured EC50 of CC(C)OC(=O)[C@@H](C)N[P@@](=O)(OCC1O[C@@H](n2ccc(=O)[nH]c2=O)[C@](C)(F)[C@@H]1O)Oc1ccccc1 (single isomer, unassigned) for HCV genotype 1b replicon.
Solution: > 10 µM

---

Each entry below carries its reported CC50.
Assay: Cytotoxicity evaluation, CellTiter-Blue Cell Viability Assay
Assay type: cell-based
Settings: human, Zluc cells (Huh-7-derived cell line), read-out: HCV Replicon CC50

CC(C)OC(=O)[C@@H](C)N[P@](=O)(OCC1O[C@@H](n2ccc(=O)[nH]c2=O)[C@](C)(F)[C@@H]1O)Oc1ccccc1 (single isomer, unassigned)
> 50 µM

Problem: Which value of CC50 has been reported for CC(C)OC(=O)[C@@H](C)N[P@@](=O)(OCC1O[C@@H](n2ccc(=O)[nH]c2=O)[C@](C)(F)[C@@H]1O)Oc1ccccc1 (single isomer, unassigned) in the records?
Solution: > 50 µM
